target: EGFRvIII-Fc fusion antigen (human, UniProt P00533 25-645); experiment: SPR Biacore T200, EGFRvIII-Fc captured via anti-hu Fc, scFv analyte, 1:1 model;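 note: Multi-cycle kinetics on a CM5 chip in HBS-P+ running buffer, 180 s scFv association then 540 s dissociation, with blank flow cell signals subtracted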
measured_attribute: kon (M⁻¹ s⁻¹)
One number for each entry, in M⁻¹ s⁻¹.

Give kon for each of the items listed below.
1. scFv 477 (scFv, V domains shown, One-chain scFv, His-tagged) VH: EVQLVQSGAEVKKPGESLKISCKGSGYSFSSYWIGWVRQMPGKGLEWMGIIYPGDSDTRYSPSFQGQVTISADKSISTAYLQWSSLKASDTAMYYCARLGSSWTNDAFDIWGQGTLVTVSS VL: SYELTQPPSVSVSPGQTARITCSGDYLPKQYAYWYQQKPGQAPVLVIYKDTERPSGIPERFSGSSSGTTVTLTISGVQAEDEADYYCQSADASGTYYVFGGGTKLTVL
2. scFv 470 (scFv, V domains shown, One-chain scFv, His-tagged) VH: EVQLVQSGAEVKKPGESLKISCKGSGYSFNSYWIGWVRQMPGKGLEWMGIIYPGDSDTRYSPSFQGQVTISADKSISTAYLQWSSLKASDTAMYYCARLGSSWTNDAFDIWGQGTLVTVSS VL: SYELTQPPSVSVSPGQTARITCSGDALDKQYAYWYQQKPGQAPVLVIYKDSERPSGIPERFSGSSSGTTVTLTISGVQAEDEADYYCQSVDSSETYVVFGGGTKLTVL
3. scFv 471 (scFv, V domains shown, One-chain scFv, His-tagged) VH: EVQLVQSGAEVKKPGESLKISCKGSGYSFNSYWIGWVRQMPGKGLEWMGIIYPGDSANRYSPSFQGQVTISADKSISTAYLQWSSLKASDTAMYYCARLGSSWTNDAFDIWGQGTLVTVSS VL: SYELTQPPSVSVSPGQTARITCSGDYLPKQYAYWYQQKPGQAPVLVIYKDTERPSGIPERFSGSSSGTTVTLTISGVQAEDEADYYCQSVDSSHPSVVFGGGTKLTVL
4. scFv 474 (scFv, V domains shown, One-chain scFv, His-tagged) VH: EVQLVQSGAEVKKPGESLKISCKGSGYSFSHYWIGWVRQMPGKGLEWMGITYPGDVDTRYDPSFQGQVTISADKSISTAYLQWSSLKASDTAMYYCARLGSSWTNDAFDIWGQGTLVTVSS VL: SYELTQPPSVSVSPGQTARITCSGDALPKTYAYWYQQKPGQAPVLVIYKDTERPSGIPERFSGSSSGTTVTLTISGVQAEDEADYYCQSADSSGTYLVFGGGTKLTVL

Key:
1. 3e+06
2. 430000
3. 1.1e+06
4. 3.3e+06
